System: HCT116-MTAP-KO cells (HCT116 MTAP null)
assay-explanation: Proliferation inhibition of HCT116 MTAP-KO cells in vitro (CellTiter Glo)
Type: cell-based
test-conditions: HCT116-MTAP null, 144 h, 6 days, 9 concentrations starting from 3 μM, read-out: Cell proliferation inhibition rate HCT116 MTAP null IC50 (nm)
pIC50: −log10 of the molar value.
Collected pIC50 values appear next to each entry.

compound	pIC50
CCN(Cc1cn2cc(C(F)F)ccc2n1)C(=O)c1cc2c(cc1F)nc(N)c1c(C)ncn12	> 7.00
Cc1ncc2c(N)nc3cc(F)c(C(=O)N(Cc4ccncn4)c4ccnn4C)cc3n12	6.00 to 7.00
Cc1c(N(Cc2ccc(C(F)(F)F)cn2)C(=O)c2cc3c(cc2F)nc(N)c2cnc(C)n23)cnn1C	> 7.00
Cc1ncc2c(N)nc3cc(F)c(C(=O)N(Cc4cccc(C(F)(F)F)n4)c4ccnn4C)cc3n12	> 7.00
CCN(C(=O)c1cc2c(cc1F)nc(N)c1cnc(C)n12)C1COc2cc(-c3cnn(C(F)(F)F)c3)ccc21 (centres unmarked)	6.00 to 7.00
Cc1ncc2c(N)nc3cc(F)c(C(=O)N(Cc4ccc(C(F)(F)F)cn4)c4cn(C)nc4C(F)(F)F)cc3n12	> 7.00
Cc1[nH]ncc1N(Cc1ccc(C(F)(F)F)cn1)C(=O)c1cc2c(cc1F)nc(N)c1cnc(C)n12	6.00 to 7.00
Cc1ncc2c(N)nc3cc(F)c(C(=O)N(Cc4ccc(C(F)(F)F)cn4)c4cnn(C)n4)cc3n12	> 7.00
Cc1ncc2c(N)nc3cc(F)c(C(=O)N(Cc4ccc(C(F)(F)F)cn4)C4CCOCC4)cc3n12	6.00 to 7.00
CCc1nn(C)cc1N(Cc1ccc(C(F)(F)F)cn1)C(=O)c1cc2c(cc1F)nc(N)c1c(C)ncn12	> 7.00
Cc1nn(C)cc1N(Cc1ccc(C(F)(F)F)cn1)C(=O)c1ccc2nc(N)c3c(C)nc(C)n3c2c1	6.00 to 7.00

====

Tested on: HCT116-MTAP-KO cells (HCT116 MTAP null)
assay-explanation: Proliferation inhibition of HCT116 MTAP-KO cells in vitro (CellTiter Glo)
Type: cell-based
test-conditions: HCT116-MTAP null, 144 h, 6 days, 9 concentrations starting from 3 μM, read-out: Cell proliferation inhibition rate HCT116 MTAP null IC50 (nm)

molecule	IC50
Cc1ncccc1N(Cc1ccc(C(F)(F)F)cn1)C(=O)c1cc2c(cc1F)nc(N)c1cnc(C)n12	< 100 nM
COCCOc1ccc(CN(C(=O)c2cc3c(cc2F)nc(N)c2cnc(C)n23)c2cn(C)nc2C)nc1	100 to 1000 nM
Cc1ncc2c(N)nc3cc(F)c(C(=O)N(Cc4ccc(OC5CC5)nn4)c4ccnn4C)cc3n12	< 100 nM
CCN(Cc1nc(-c2ccc(C(F)(F)F)nc2)cs1)C(=O)c1cc2c(cc1F)nc(N)c1cnc(C)n12	100 to 1000 nM
COc1ccc(N(Cc2ccc(C(F)(F)F)cn2)C(=O)c2cc3c(cc2F)nc(N)c2cnc(C)n23)cn1	< 100 nM
Cc1ncc2c(N)nc3cc(F)c(C(=O)N(Cc4cn5ccccc5n4)C(C)C(F)(F)F)cc3n12 (centres unmarked)	100 to 1000 nM
Cc1cccc(-c2ncc(CN(CC(C)C)C(=O)c3ccc4nc(N)c5c(C)ncn5c4c3)[nH]2)n1	100 to 1000 nM
COCCN(C)c1ccc(CN(C(=O)c2cc3c(cc2F)nc(N)c2cnc(C)n23)c2ccnn2C)nc1	100 to 1000 nM

====

System: HCT116-MTAP-KO cells (HCT116 MTAP null)
assay-explanation: Proliferation inhibition of HCT116 MTAP-KO cells in vitro (CellTiter Glo)
Assay type: cell-based
test-conditions: HCT116-MTAP null, 144 h, 6 days, 9 concentrations starting from 3 μM, read-out: Cell proliferation inhibition rate HCT116 MTAP null IC50 (nm)
measurement-kind: IC50

compound	test-value
Cc1ncc2c(N)nc3cc(F)c(C(=O)N(C)C4COc5cc(-c6cnn(C(F)(F)F)c6)ccc54)cc3n12 (stereo not drawn)	1000 to 10000 nM
Cc1ncc2c(N)nc3cc(F)c(C(=O)N(Cc4cnn(C5CC5)c4)c4ccnn4C)cc3n12	< 100 nM
Cc1nn(C)cc1N(Cc1ncc(C(F)(F)F)s1)C(=O)c1cc2c(cc1F)nc(N)c1cnc(C)n12	< 100 nM
COC1CCC1N(Cc1cn2cc(C(F)(F)F)ccc2n1)C(=O)c1cc2c(cc1F)nc(N)c1cnc(C)n12 (stereo not drawn)	< 100 nM
Cc1ncn2c1c(N)nc1cc(F)c(C(=O)N3C(C)COCC3c3ccc(C4CCOCC4)cn3)cc12 (stereo not drawn)	< 100 nM
Cc1ncc2c(N)nc3cc(F)c(C(=O)N(Cc4ccc(C(F)(F)F)nn4)c4cnn(C)c4)cc3n12	100 to 1000 nM
Cc1nn(CC(F)F)cc1N(Cc1ccc(C(F)(F)F)cn1)C(=O)c1cc2c(cc1F)nc(N)c1cnc(C)n12	< 100 nM
CCOc1ccc(CN(CC)C(=O)c2cc3c(cc2F)nc(N)c2cnc(C)n23)nn1	< 100 nM
Cc1ccc(N(Cc2ccc(C(F)(F)F)cn2)C(=O)c2cc3c(cc2F)nc(N)c2cnc(C)n23)cn1	< 100 nM

====

Test system: HCT116-MTAP-KO cells (HCT116 MTAP null)
assay-explanation: Proliferation inhibition of HCT116 MTAP-KO cells in vitro (CellTiter Glo)
Assay type: cell-based
test-conditions: HCT116-MTAP null, 144 h, 6 days, 9 concentrations starting from 3 μM, read-out: Cell proliferation inhibition rate HCT116 MTAP null IC50 (nm)
pIC50: −log10 of the molar value.
measurement-kind: pIC50

compound	measurement-kind	test-value
Cc1ncc2c(N)nc3cnc(C(=O)N(Cc4ccc(C(F)(F)F)cn4)C(C)c4ncccn4)cc3n12 (centres unmarked)	pIC50	6.00 to 7.00
CCN(Cc1cn2cc(C(F)(F)F)ccc2n1)C(=O)c1cc2c(cc1F)nc(N)c1c(C)ncn12	pIC50	> 7.00
Cc1ncc2c(N)nc3cc(F)c(C(=O)N(Cc4ccc(OC5CC5)cn4)c4ccnn4C)cc3n12	pIC50	> 7.00
CCN(Cc1ccc(OC2COC2)cn1)C(=O)c1cc2c(cc1F)nc(N)c1cnc(C)n12	pIC50	6.00 to 7.00
Cc1ncc2c(N)nc3cc(F)c(C(=O)N(Cc4ccc(C(F)(F)F)cn4)c4ccn(CCO)n4)cc3n12	pIC50	6.00 to 7.00

Data origin: patent US20250376473A1
